Reference source: paper PMC11664502

Target: thiaminase II (TenA) (Bacillus subtilis)
Sequence (P25052 1-236): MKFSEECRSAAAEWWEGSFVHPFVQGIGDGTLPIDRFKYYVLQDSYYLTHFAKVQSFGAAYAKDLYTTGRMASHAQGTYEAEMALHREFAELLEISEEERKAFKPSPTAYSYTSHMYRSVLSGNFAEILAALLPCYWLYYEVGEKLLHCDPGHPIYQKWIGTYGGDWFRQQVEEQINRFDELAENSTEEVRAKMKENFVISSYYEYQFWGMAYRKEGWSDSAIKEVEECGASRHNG
READOUT_NAME: Kd (µM)
Answer with a number only, understood to be in µM.

Write down the reported Kd of Nc1ccnc(NCc2ccccc2)n1 [L, 4-amino-2-benzylaminopyrimidine] , test system: thiaminase II (TenA) (Bacillus subtilis).
39.7
